- TARGET_UNDER_TEST: human FABP4 (Homo sapiens, UniProt P15090)
- Sequence (P15090 whole entry): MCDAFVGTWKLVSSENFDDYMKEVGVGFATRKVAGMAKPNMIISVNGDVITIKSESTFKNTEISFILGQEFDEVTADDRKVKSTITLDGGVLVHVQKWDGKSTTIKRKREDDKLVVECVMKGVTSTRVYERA
PROPERTY: IC50 (µM)
Report as a plain number; the unit µM is understood.

Measured IC50 of `C[C@H]1COc2c(N3CCN(C)CC3)c(F)cc3c(=O)c(C(=O)O)cn1c23` : 5.83
